Target or system: human GLP-1 receptor (Homo sapiens)
Construct: HA (N); expressed in transfected cells
Sequence (P43220 24-463): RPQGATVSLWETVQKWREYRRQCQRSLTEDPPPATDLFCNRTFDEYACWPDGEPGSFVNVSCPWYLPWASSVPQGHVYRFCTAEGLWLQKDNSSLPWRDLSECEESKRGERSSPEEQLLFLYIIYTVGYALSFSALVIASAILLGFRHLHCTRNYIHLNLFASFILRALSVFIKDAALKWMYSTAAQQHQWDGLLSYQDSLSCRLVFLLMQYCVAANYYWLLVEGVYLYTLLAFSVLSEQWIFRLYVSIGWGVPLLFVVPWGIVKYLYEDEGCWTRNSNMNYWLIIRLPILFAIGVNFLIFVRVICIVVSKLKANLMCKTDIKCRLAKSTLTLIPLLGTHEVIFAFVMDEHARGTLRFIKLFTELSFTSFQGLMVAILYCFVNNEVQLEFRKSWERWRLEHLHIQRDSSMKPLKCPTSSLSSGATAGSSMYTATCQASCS
Assay: GLP-1 receptor-mediated agonist activity: cAMP level in hGLP-1R/HEK293 cell line (HTRF)
Type: cell-based
Particulars: cAMP levels in hGLP-1R/HEK293 cell line; Table 1; read-out: determined EC50
Quantity kind: pEC50
Answers are plain numbers, as −log10 of the molar value.

Consider the following illustrative entries.
Compound: COc1cc(C(=O)O)cc2c1nc(CN1CCN(c3cccc4c3OC(C)(c3ccc(C(F)(F)F)cn3)O4)C=N1)n2C[C@@H]1CCO1 (stereo partly drawn)
pEC50: 10.31

Compound: CCOc1cc(C(=O)O)cc2c1nc(CN1CCN(c3cccc(OCc4ccc(Cl)cc4F)n3)C=N1)n2C[C@@H]1CCO1
pEC50: 12.00

Compound: CCCOc1cc(C(=O)O)cc2c1nc(CN1CCN(c3cccc(OCc4ccc(C#N)cc4F)n3)C=N1)n2C[C@@H]1CCO1
pEC50: 11.31

Compound: COc1cc(C(=O)O)cc2c1nc(CN1CCN(c3cccc(OCc4ccc(Cl)cc4F)n3)CC1)n2C[C@@H]1CCO1
pEC50: 11.02

Hi, could you look up pEC50 for each item in my list?
1. COc1cc(C(F)(F)F)ccc1C1(C)Oc2cccc(N3C=NN(Cc4nc5c(OC)cc(C(=O)O)cc5n4C[C@@H]4CCO4)CC3)c2O1 (stereo partly drawn)
2. [2H]C([2H])([2H])Oc1cc(C(=O)O)cc2c1nc(CN1CCN(c3cccc(OCc4ccc(Cl)cc4F)n3)C=N1)n2C[C@@H]1CCO1
3. COc1cc(C(=O)O)cc2c1nc(CN1CCC(c3cccnc3OCc3ccc(C#N)c4c3OCC4)CC1)n2C[C@@H]1CCO1
4. COc1cc(C(=O)O)cc2c1nc(CN1CCC(c3cccc(OCc4ccc(C#N)cc4F)n3)CC1)n2C[C@@H]1CCO1
5. [2H]C([2H])([2H])C([2H])([2H])Oc1cc(C(=O)O)cc2c1nc(CN1CCN(c3cccc4c3OC(C)(c3ccc(Cl)cn3)O4)C=N1)n2C[C@@H]1CCO1 (stereo partly drawn)
6. [2H]C([2H])([2H])C([2H])([2H])Oc1cc(C(=O)O)cc2c1nc(CN1CCC(c3cccc4c3OC(C)(c3ccc(Cl)cn3)O4)CC1)n2C[C@@H]1CCO1 (stereo partly drawn)
7. COc1cc(C(=O)O)cc2c1nc(CN1CCC(c3cccc4c3OC(C)(c3ccc(C(F)(F)F)cn3)O4)CC1)n2C[C@@H]1CCO1 (stereo partly drawn)

[11.06, 11.03, 11.09, 11.32, 11.08, 11.00, 10.60]

---

pIC50: −log10 of the molar value.
Assay system hERG potassium channels (Homo sapiens, UniProt Q12809); read-out recorded as pIC50.

Consider the following illustrative entries.
Compound: COc1cc(C(F)(F)F)ccc1COc1cccc(N2C=NN(Cc3nc4c(OC)cc(C(=O)O)cc4n3C[C@@H]3CCO3)CC2)n1
pIC50: < 4.40

Compound: CCOc1cc(C(=O)O)cc2c1nc(CN1CCN(c3cccc4c3OC(C)(c3ccc(C(F)(F)F)cc3F)O4)C=N1)n2C[C@@H]1CCO1 (stereo partly drawn)
pIC50: < 4.40

Consider now this further compound.
For [2H]C([2H])([2H])Oc1cc(C(=O)O)cc2c1nc(CN1CCC(c3cccc4c3OC(C)(c3ccc(C(F)(F)F)cn3)O4)CC1)n2C[C@@H]1CCO1 (stereo partly drawn) the compound record lists pIC50 as < 4.40
